molecular target: SARS-CoV-2 spike protein receptor binding domain (RBD2) (SARS-CoV-2, UniProt P0DTC2 319-537); assay: SPR sandwich binning, ligand E08
Listed here are binders together with their documented normalized analyte binding to RBD2 held by the immobilized ligand.
Give the figure only, with no unit attached.

Some solved entries appear below for comparison.
- E08 IgG1 (antibody, V domains shown) VH: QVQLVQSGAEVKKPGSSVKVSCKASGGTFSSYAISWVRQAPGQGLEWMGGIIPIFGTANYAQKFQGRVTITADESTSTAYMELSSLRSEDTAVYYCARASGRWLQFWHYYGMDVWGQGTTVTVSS VL: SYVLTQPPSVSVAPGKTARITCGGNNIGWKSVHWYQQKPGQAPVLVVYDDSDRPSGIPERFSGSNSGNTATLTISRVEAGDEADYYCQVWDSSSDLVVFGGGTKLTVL: -0.09
- H01 IgG1 (antibody, V domains shown, also called H1) VH: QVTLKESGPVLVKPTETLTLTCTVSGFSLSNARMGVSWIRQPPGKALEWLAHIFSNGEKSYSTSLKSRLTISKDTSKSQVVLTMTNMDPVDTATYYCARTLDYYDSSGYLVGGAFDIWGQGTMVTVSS VL: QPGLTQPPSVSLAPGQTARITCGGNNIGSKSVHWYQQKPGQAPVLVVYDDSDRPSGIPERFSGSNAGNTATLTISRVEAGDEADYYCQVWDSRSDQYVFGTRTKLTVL: -0.03

# get_value(readout='normalized analyte binding to RBD2 held by the immobilized ligand', item= B04 IgG1 (antibody, V domains shown) VH: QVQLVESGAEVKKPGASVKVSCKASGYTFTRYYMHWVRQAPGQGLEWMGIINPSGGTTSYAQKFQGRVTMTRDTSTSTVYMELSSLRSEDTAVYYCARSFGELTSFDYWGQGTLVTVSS VL: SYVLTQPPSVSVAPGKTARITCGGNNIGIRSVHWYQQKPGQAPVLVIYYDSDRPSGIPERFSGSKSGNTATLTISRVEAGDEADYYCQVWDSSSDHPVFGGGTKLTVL )
2.24

The reported measurements were obtained from patent US12018066.
